# measurementProtocol: Toxicity (LD50) when tested in mice
# conditionDescription: mouse, in vivo

compound | LD50
CCC(C(=O)OC1O[C@H](CO)[C@@H](O)[C@H](O)[C@H]1O)C(=O)OC1O[C@H](CO)[C@@H](O)[C@H](O)[C@H]1O (stereo partly drawn) [Example 4, Di-(1,1'-D-glucopyranosyl)ethylmalonates] | 9700 mg/kg

Origin of values: patent US4572907A
